- systemUnderTest: T1, recombinant cynomolgus CLL-1 extracellular domain (ECD, amino acids 65-265) fused to an N-terminal Flag (cynomolgus monkey)
- T1 construct: Construct stated for the immunogen; also called CynoCLL-1 Flag; cynoCLL-1
- T1 chain: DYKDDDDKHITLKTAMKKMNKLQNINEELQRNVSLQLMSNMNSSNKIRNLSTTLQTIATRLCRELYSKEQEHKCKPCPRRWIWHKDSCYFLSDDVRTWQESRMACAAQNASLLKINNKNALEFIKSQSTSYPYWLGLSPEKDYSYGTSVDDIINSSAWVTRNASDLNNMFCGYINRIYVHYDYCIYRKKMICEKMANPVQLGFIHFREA
- assayProtocol: SPR (Biacore), chimeric IgG captured by anti-human IgG, CLL-1 as analyte
readoutName: Kd (nM)
Just the number in nM, nothing appended.

Query string: Please give the measured Kd for this binder: ch20B1 (antibody, V domains shown, chimeric version of m20B1, human IgG; also called chimeric 20B1; 2061 [sic]) VH: EVQLQQSGPELVKPGALVKISCKASGYTFTSYDINWLKQRPGQGLEWIGWIYPGDGTTEYNERFKGKATLTADKSSSTAYLQLSSLTSENSAVYFCARSYDYDYAMDYWGQGTSVTVSS VL: DIVLTQSPAIMSASPGEKVTMTCSASSSISYMYWYQQKPGTSPKRWIYDTSKLASGVPARFSGSGSGTSYSLTISSMEAEDAATYYCHQRSSWTFGGGTKLEIK
Result string: 6.1

Reference source: patent US20200148774A1
